- assay_system: EF2K (Homo sapiens)
- Construct: host or cells: LN-229 glioblastoma cell lysate
- assay_explanation: Biochemical EF2K lysate-based kinase assay (AlphaLISA p-eEF2 Thr56)
- applied_conditions: LN-229 cell lysates, 10 mM ATP, pH 6.6; pIC50 = -log IC50 (M); read-out: eEF2K_C_alphalisa pIC50 (converted)
Entries and their IC50 values follow.
Give just the number in M; leave the unit off.

Field: example entries. Status: answers known.
## Task # query: IC50 of entry O=C1CN2CCN(CC2)Cc2cccc(c2F)Nc2cc(ccn2)-c2cnc(nc2)NCCCN1
## Result 1.05e-08

## Task # query: IC50 of entry O=C1CN2CCC(C2)Oc2cccc(c2)Nc2cc(ccn2)-c2cnc(nc2)NCCCN1 (stereo not shown)
## Result 7.94e-08

## Task # query: IC50 of entry COCCN1CCNC(=O)CN2CCN(CC2)Cc2cccc(c2)Nc2cc(ccn2)-c2cnc(nc2)C1
## Result 2.69e-05

Here is the next item to consider.
## Task # query: IC50 of entry O=C1CC2CCNC(=O)CN3CCN(CC3)Cc3cccc(c3)Nc3cc(ccn3)-c3cnc(nc3)N2C1 (stereo not shown)
## Result 6.46e-08

###

- assay_system: eEF2K (Homo sapiens, UniProt O00418)
- Construct: in the immortalized epithelial breast cell lines, MCF10A; host or cells: MCF10A immortalized breast epithelial cells
- assay_explanation: EF2K cell-based assay (P-EF2 AlphaLISA, 2-deoxyglucose stimulated MCF10A cells)
- applied_conditions: 2.5 mM 2-deoxyglucose 4 h, phosphorylation of EF2 at Thr 56, pIC50 = -log IC50 (M), read-out: eEF2K_C_PThr56 pIC50 (converted)
endpoint_label: IC50

## Task # query: IC50 of entry O=C1CN2CCN(CC2)Cc2cccc(c2)Nc2cc(ccn2)-c2cnc(nc2)NCCS(=O)(=O)N1
## Result > 3.02e-05 M

## Task # query: IC50 of entry O=C1CN2CCN(CC2)Cc2cccc(c2)Nc2cc(ccn2)-c2ccc(nc2)N2CCCC2CCN1 (single isomer, unassigned) [Compound 143]
## Result > 3.02e-05 M

## Task # query: IC50 of entry O=C1CN2CCN(CC2)Cc2cccc(c2)Nc2cc(ccn2)-c2ccc(nc2)CN(CC2CC2)CCN1
## Result 6.61e-07 M

## Task # query: IC50 of entry CC1CN2CCN1Cc1cccc(c1)Nc1cc(ccn1)-c1cnc(nc1)N1CC(O)CC1CCNC(=O)C2 (stereo not drawn) [Compound 62]
## Result 8.51e-08 M

## Task # query: IC50 of entry O=C1CN2CCC(CC2)Oc2cccc(c2)Nc2cc(ccn2)-c2cnc(nc2)N2CC(O)CC2CCN1 (stereo not drawn)
## Result 1.07e-06 M

## Task # query: IC50 of entry O=C1CN2CC(C2)Oc2cccc(c2)Nc2cc(ccn2)-c2cnc(nc2)NCCCN1
## Result 1.17e-06 M

###

- assay_system: eEF2K (Homo sapiens, UniProt O00418)
- Construct: in the immortalized epithelial breast cell lines, MCF10A; host or cells: MCF10A immortalized breast epithelial cells
- Sequence (O00418 1-725): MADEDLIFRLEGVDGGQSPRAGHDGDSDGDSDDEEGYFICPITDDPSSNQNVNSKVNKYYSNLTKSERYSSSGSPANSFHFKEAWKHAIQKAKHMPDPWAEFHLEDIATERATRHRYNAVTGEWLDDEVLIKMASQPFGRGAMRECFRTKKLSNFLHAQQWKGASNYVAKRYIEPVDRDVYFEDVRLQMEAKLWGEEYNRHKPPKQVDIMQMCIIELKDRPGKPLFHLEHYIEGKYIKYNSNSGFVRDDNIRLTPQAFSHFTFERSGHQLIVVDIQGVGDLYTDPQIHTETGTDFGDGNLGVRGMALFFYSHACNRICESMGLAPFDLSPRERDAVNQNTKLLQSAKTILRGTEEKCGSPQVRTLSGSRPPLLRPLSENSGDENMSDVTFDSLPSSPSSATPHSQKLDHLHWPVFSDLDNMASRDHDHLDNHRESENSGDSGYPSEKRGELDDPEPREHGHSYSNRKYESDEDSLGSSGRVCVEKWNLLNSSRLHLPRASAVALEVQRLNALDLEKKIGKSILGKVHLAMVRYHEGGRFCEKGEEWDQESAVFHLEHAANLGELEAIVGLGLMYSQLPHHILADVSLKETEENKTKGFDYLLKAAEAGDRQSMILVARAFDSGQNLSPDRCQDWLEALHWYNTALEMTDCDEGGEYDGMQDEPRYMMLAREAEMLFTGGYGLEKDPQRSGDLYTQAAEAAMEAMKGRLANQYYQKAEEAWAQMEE
- assay_explanation: EF2K cell-based assay (P-EF2 AlphaLISA, 2-deoxyglucose stimulated MCF10A cells)
- applied_conditions: 2.5 mM 2-deoxyglucose 4 h, phosphorylation of EF2 at Thr 56, pIC50 = -log IC50 (M), read-out: eEF2K_C_PThr56 pIC50 (converted)
Entries and their IC50 values follow.
Give just the number in M; leave the unit off.

## Task # query: IC50 of entry O=C1CN2CCN(CC2)Cc2cc(ccc2F)Nc2cc(ccn2)-c2cnc(nc2)N2CC(O)CC2CCN1 (stereo not shown)
## Result 3.55e-07

Here is the next item to consider.
## Task # query: IC50 of entry O=C1NCCCNc2ncc(cn2)-c2ccnc(c2)Nc2cccc(c2)CN2CCN(CC2)C12CC2
## Result 3.55e-07

###

- assay_system: eEF2K (Homo sapiens)
- Construct: in the immortalized epithelial breast cell lines, MCF10A; host or cells: MCF10A immortalized breast epithelial cells
- Sequence (O00418 1-725): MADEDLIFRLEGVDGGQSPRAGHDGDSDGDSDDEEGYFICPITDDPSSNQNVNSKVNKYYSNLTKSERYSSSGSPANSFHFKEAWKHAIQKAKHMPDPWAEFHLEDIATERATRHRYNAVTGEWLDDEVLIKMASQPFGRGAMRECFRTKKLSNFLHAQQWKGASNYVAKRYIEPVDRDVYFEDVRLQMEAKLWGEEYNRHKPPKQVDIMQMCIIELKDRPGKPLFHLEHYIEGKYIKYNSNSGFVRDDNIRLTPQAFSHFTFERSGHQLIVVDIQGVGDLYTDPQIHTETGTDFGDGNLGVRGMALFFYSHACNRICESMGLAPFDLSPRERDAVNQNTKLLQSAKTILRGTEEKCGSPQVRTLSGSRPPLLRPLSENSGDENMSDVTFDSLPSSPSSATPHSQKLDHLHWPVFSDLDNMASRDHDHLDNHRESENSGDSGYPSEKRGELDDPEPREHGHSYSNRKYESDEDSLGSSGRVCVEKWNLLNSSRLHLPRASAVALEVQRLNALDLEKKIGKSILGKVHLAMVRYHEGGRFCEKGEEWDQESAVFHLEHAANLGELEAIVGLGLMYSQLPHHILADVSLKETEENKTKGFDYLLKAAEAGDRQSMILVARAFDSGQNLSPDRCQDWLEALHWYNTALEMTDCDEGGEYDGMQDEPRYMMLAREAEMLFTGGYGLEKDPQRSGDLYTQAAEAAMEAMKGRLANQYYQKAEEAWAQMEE
- assay_explanation: EF2K cell-based assay (P-EF2 AlphaLISA, 2-deoxyglucose stimulated MCF10A cells)
- applied_conditions: 2.5 mM 2-deoxyglucose 4 h, phosphorylation of EF2 at Thr 56, pIC50 = -log IC50 (M), read-out: eEF2K_C_PThr56 pIC50 (converted)
endpoint_label: IC50

## Task # query: IC50 of entry O=C1CN2CCN(CC2)Cc2cccc(c2)Nc2cc(ccn2)-c2ccc(nn2)NCCCN1
## Result > 3.02e-05 M

###

- assay_system: EF2K (Homo sapiens, UniProt O00418)
- Construct: host or cells: LN-229 glioblastoma cell lysate
- assay_explanation: Biochemical EF2K lysate-based kinase assay (AlphaLISA p-eEF2 Thr56)
- applied_conditions: LN-229 cell lysates, 10 mM ATP, pH 6.6; pIC50 = -log IC50 (M); read-out: eEF2K_C_alphalisa pIC50 (converted)
Entries and their IC50 values follow.
Give just the number in M; leave the unit off.

Field: example entries. Status: answers known.
## Task # query: IC50 of entry CC1c2cccc(c2)Nc2cc(ccn2)-c2cnc(nc2)NCCCNC(=O)C2(CC2)N2CCN1CC2 (single isomer, unassigned) [Compound 23]
## Result 9.55e-08

## Task # query: IC50 of entry CN1CCCNc2ccc(cn2)-c2ccnc(c2)Nc2cccc(c2)CN2CCN(CC2)CC1=O
## Result 1.41e-05

## Task # query: IC50 of entry COCC1C(=O)NCCCNc2ncc(cn2)-c2ccnc(c2)Nc2cccc(c2)CN2CCN1CC2 (single isomer, unassigned) [Compound 5]
## Result 1.12e-07

## Task # query: IC50 of entry O=C1CN2CCC(CC2)Oc2cccc(c2)Nc2cc(ccn2)-c2cnc(nc2)NCCCN1
## Result 1.91e-08

## Task # query: IC50 of entry [N-]=[N+]=N[C@@H]1C[C@H]2CCNC(=O)CN3CCN(CC3)Cc3cccc(c3)Nc3cc(ccn3)-c3cnc(nc3)N2C1
## Result 1.86e-08

Further cases:
## Task # query: IC50 of entry O=C1CN2CCN(CC2)Cc2cccc(c2)Nc2cc(ccn2)-c2cnc(nc2)CN(CC2CC2)CCN1
## Result 2.88e-07

## Task # query: IC50 of entry CNC(=O)c1ccc2cc1CN1CCN(CC1)CC(=O)NCCCNc1ncc(cn1)-c1ccnc(c1)N2
## Result 3.47e-08

## Task # query: IC50 of entry O=C1CN2CCC(CC2)Oc2cccc(c2)Nc2cc(ccn2)-c2cnc(nc2)N2CC(O)CC2CCN1 (stereo not drawn)
## Result 3.09e-08

## Task # query: IC50 of entry O=C1CN2CCC(CC2)Nc2cccc(c2)Nc2cc(ccn2)-c2cnc(nc2)NCCCN1
## Result 7.59e-07

## Task # query: IC50 of entry O=C1NCCCNc2ncc(cn2)-c2ccnc(c2)Nc2cccc(c2)CN2CCN(CC2)C1CO (single isomer, unassigned) [Compound 3]
## Result 1.55e-07

## Task # query: IC50 of entry O=C1CN2CCN(Cc3cccc(c3)Nc3cc(ccn3)-c3cnc(nc3)NCCCN1)C1(CC1)C2
## Result 1.07e-08
